- target_desc: T1, Recombinant His-tagged human CD36.ECD protein (Sino Biological) (human, UniProt P16671 30-439)
- T1 construct: Bought protein; also called hCD36.ECD; hCD36; not shown: His tag
- measurement_notes: ELISA, coated human CD36.ECD (FIG. 2A)
The following binders are shown together with reported EC50 values.
Give the number; nM is assumed, so skip it.

12P109 (antibody, human IgG1, kappa, N297A, V domains shown, Full-length human IgG1-N297A, kappa; also called 12P109 (IgG1)) VH: EVQLVESGGGLVQPGGSLRLSCAASGFTISSFGIHWVRQAPGKGLEWVAWIAPYGGYTYYADSVKGRFTISADTSKNTAYLQMNSLRAEDTAVYYCARSFFGYFDYWGQGTLVTVSS VL: DIQMTQSPSSLSASVGDRVTITCRASQDVSNWVAWYQQKPGKAPKLLISTSTSLYSGVPSRFSGSGSGTDFTLTISSLQPEDFATYYCQQYYTLPFTFGQGTKVEIKR: 1.53

Requested field: EC50. Item: 117_57A (antibody, V domains shown, full-length IgG, human kappa) VH: EVQLVESGGGLVQPGGSLRLSCAASGFTISSFGIHWVRQAPGKGLEWVAWIAPYGGATYYADSVKGRFTISADTSKNTAYLQMNSLRAEDTAVYYCARSFFGYFDYWGQGTLVTVSS VL: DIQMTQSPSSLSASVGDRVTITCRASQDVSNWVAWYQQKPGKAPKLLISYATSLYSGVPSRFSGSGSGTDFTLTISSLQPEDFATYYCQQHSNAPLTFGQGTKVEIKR
1.52

Follow-up item: 117_57D (antibody, V domains shown, full-length IgG, human kappa) VH: EVQLVESGGGLVQPGGSLRLSCAASGFTISSFGIHWVRQAPGKGLEWVAWIAPYGGDTYYADSVKGRFTISADTSKNTAYLQMNSLRAEDTAVYYCARSFFGYFDYWGQGTLVTVSS VL: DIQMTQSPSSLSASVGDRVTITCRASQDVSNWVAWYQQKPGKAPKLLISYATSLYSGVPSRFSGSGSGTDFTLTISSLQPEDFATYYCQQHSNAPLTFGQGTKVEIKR
0.0529
